Data provenance: patent US20210252175A1

# TARGET SYSTEM: Aβ pathological aggregates present in the human AD insoluble fractions (Homo sapiens, UniProt P05067)
# Construct: "4.7 g of frontal lobe tissue from post-mortem brain of one Alzheimer's disease (AD) patient"
# Sequence (P05067 whole entry): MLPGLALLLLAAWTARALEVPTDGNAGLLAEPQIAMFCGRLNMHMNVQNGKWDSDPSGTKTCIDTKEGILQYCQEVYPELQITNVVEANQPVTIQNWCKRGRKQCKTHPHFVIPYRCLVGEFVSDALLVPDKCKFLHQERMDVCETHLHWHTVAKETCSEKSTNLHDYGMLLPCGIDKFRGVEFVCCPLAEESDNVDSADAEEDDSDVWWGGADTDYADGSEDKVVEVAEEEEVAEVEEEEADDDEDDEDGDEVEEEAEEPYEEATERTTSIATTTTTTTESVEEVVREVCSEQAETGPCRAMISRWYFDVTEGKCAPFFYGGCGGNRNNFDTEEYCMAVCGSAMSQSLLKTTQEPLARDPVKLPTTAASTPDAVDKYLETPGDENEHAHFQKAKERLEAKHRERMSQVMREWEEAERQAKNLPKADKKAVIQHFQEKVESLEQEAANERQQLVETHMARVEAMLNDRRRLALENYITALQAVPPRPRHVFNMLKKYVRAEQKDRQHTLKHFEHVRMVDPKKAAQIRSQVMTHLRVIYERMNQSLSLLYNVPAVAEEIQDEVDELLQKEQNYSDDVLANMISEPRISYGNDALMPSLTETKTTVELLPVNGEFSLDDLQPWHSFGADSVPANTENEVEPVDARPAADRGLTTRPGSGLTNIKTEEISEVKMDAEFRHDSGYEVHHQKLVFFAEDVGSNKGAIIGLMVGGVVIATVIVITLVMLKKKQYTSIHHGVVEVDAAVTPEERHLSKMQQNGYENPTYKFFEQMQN
# MEASUREMENT PROTOCOL: Radio-binding competition assay on human AD insoluble fraction
# CONDITION PARAMETERS: measurements C and D; read-out: Kd of the radioligand on the AD insoluble fraction
pKd: −log10 of the molar value.

{"columns": ["COMPOUND", "pKd"],
 "data": [
  ["[3H]C([3H])([3H])Nc1ccc(-c2ccc3cc(-c4cccnc4)sc3n2)cn1 [[^3H] Example 47 of WO2017/153601, reference compound]", 8.10]
]}

---

# TARGET SYSTEM: Recombinant human full-length wild-type aSyn fibrils (Homo sapiens, UniProt P37840)
# Construct: Recombinant human full-length wild-type aSyn bacterially expressed; purchased rPeptide, US
# MEASUREMENT PROTOCOL: Radio-binding competition assay on recombinant aSyn fibrils
# CONDITION PARAMETERS: measurement B, second batch of aSyn fibrils; radioligand [3H] Example 69 of WO2017/153601 (Kd 60 nM); read-out: Ki on aSyn Fibrils, measurement B
ENDPOINT: Ki (nM)

{"columns": ["MOLECULE", "ENDPOINT", "EXPERIMENTAL VALUE"],
 "data": [
  ["CN1CCN(c2cc3sc(-c4ccc(N5CC[C@H](F)C5)nc4)nc3cn2)C(=O)C1", "Ki", 31.9],
  ["CN1CCN(c2cc3sc(-c4ccc(N5CC[C@@H](F)C5)nc4)nc3cn2)C(=O)C1", "Ki", 31.9],
  ["CN1CCN(c2ncc3nc(-c4ccc(N5CC[C@@H](F)C5)nc4)sc3n2)C(=O)C1", "Ki", 28.3],
  ["CN1CCN(c2ccc3nc(-c4ccc(N5CC[C@H](F)C5)nc4)sc3c2)C(=O)C1 [Example 71 of WO2017/153601, reference compound]", "Ki", 73.7],
  ["CN1CCN(c2ncc3nc(-c4ccc(N5CC[C@H](F)C5)nc4)sc3n2)C(=O)C1", "Ki", 52.8],
  ["CN1CCN(c2cc3sc(-c4ccc(N5CC(F)C5)nc4)nc3cn2)C(=O)C1", "Ki", 96.8],
  ["CN1CCN(c2ccc3nc(-c4ccc(N5CC[C@@H](F)C5)nc4)sc3n2)C(=O)C1", "Ki", 41.7],
  ["CN1CCN(c2ccc3nc(-c4ccc(N5CC[C@@H](F)C5)nc4)sc3c2)C(=O)C1 [Example 70 of WO2017/153601, reference compound]", "Ki", 97.7]
]}

---

# TARGET SYSTEM: Aβ pathological aggregates present in the human AD insoluble fractions (Homo sapiens, UniProt P05067)
# Construct: "4.7 g of frontal lobe tissue from post-mortem brain of one Alzheimer's disease (AD) patient"
# MEASUREMENT PROTOCOL: Radio-binding competition assay on human AD insoluble fraction
# CONDITION PARAMETERS: measurement C; radioligand [3H] Example 47 of WO2017/153601 at 7 nM; read-out: Ki on human AD-Insoluble Fraction, measurement C
pKi: −log10 of the molar value.

{"columns": ["STRUCTURE STRING", "pKi"],
 "data": [
  ["CN1CCN(c2ncc3nc(-c4ccc(N5CCC[C@H](F)C5)nc4)sc3n2)C(=O)C1", "< 6.30"],
  ["CN1CCN(c2ncc3nc(-c4ccc(N5CC[C@@H](F)C5)nc4)sc3n2)C(=O)C1", "< 6.30"],
  ["CN1CCN(c2cc3sc(-c4ccc(N5CC[C@@H](F)C5)nc4)nc3cn2)C(=O)C1", "< 6.30"],
  ["CN1CCN(c2cc3sc(-c4ccc(N5CC[C@H](F)C5)nc4)nc3cn2)C(=O)C1", "< 6.30"]
]}
